Source: patent EP4483954A1

pIC50: −log10 of the molar value.
Consider compounds characterized by their pIC50 with DYRK2 (h) (Homo sapiens).
endpoint: pIC50

Cn1nccc1-c1ccc2scc(-c3ccncc3)c2n1	5.00 to 5.52
Cn1cc(-c2csc3ccc(Oc4ccccc4)nc23)cn1	5.00 to 5.52
Cn1cc(-c2ccc3scc(-c4cccnc4)c3n2)cn1	5.52 to 6.30
Cn1cc(-c2ccc3scc(C4=CCNCC4)c3n2)cn1	5.00 to 5.52
Cn1cc(-c2ccc3scc(-c4ccncc4)c3n2)cn1	5.52 to 6.30

---

# measuredTarget: Haspin (h) (Homo sapiens, UniProt Q8TF76)
# Sequence (Q8TF76 1-798): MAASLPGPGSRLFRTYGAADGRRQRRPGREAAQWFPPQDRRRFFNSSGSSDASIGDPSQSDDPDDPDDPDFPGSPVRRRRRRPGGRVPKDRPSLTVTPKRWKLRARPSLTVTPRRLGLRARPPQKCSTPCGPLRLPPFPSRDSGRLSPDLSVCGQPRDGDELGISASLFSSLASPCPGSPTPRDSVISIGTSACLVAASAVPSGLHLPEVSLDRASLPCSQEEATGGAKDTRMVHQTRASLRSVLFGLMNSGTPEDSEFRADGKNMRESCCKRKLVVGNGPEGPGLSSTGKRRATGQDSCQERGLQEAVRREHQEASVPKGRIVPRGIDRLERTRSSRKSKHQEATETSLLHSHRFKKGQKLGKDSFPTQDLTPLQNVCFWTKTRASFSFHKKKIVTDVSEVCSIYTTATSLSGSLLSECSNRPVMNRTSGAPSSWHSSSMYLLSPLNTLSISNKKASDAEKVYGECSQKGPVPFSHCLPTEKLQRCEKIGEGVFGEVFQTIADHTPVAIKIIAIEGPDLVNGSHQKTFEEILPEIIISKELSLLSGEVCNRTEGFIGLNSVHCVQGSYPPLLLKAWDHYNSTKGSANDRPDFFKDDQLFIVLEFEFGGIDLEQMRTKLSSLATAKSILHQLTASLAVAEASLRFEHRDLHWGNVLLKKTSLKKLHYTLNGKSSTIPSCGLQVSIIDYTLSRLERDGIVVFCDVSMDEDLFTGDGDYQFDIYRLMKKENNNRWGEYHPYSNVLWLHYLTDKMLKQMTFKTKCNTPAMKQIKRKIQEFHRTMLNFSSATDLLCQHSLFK
endpoint: IC50

Cn1ccc(Oc2ccc3scc(-c4ccncc4)c3n2)n1	0.1 to 0.499 µM
c1ccc(-c2csc3ccc(-c4ccoc4)nc23)cc1	3 to 10 µM
CCn1cc(-c2ccc3scc(-c4ccncc4)c3n2)cn1	0.5 to 3 µM
Cc1cc2scc(-c3ccncc3)c2nc1-c1ccn(C)n1	0.02 to 0.099 µM
Cn1cncc1-c1ccc2scc(-c3ccncc3)c2n1	0.02 to 0.099 µM
Cn1cc(Nc2ccc3scc(-c4ccncc4)c3n2)cn1	0.1 to 0.499 µM
Cn1nc(Nc2ccc3scc(-c4ccncc4)c3n2)cc1N	0.5 to 3 µM
Cn1cc(-c2ccc3scc(-c4ccc5ncnn5c4)c3n2)cn1	0.02 to 0.099 µM
CC(C)(C)n1ccc(-c2ccc3scc(-c4ccncc4)c3n2)n1	3 to 10 µM

---

Consider compounds characterized by their IC50 with CDKL3(h) (Homo sapiens).
Sequence (Q8IVW4 whole entry): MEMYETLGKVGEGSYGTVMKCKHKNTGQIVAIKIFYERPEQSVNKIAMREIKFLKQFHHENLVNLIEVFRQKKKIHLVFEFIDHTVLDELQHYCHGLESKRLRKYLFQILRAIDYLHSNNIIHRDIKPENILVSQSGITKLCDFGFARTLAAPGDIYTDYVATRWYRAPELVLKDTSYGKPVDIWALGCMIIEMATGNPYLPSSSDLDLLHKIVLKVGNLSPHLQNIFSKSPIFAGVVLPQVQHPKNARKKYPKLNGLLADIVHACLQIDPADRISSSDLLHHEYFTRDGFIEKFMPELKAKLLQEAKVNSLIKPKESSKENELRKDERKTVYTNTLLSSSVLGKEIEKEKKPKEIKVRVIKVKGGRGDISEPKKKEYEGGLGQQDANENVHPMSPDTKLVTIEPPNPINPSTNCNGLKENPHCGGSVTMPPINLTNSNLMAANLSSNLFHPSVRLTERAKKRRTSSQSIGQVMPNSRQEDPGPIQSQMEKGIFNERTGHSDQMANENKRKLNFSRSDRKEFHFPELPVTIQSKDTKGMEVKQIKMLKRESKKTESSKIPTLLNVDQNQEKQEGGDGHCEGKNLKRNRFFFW
endpoint: IC50

Cn1cc(-c2ccc3scc(-c4cnn(C)c4)c3n2)cn1	100 to 499 nM
Fc1cc(-c2ccc3scc(-c4ccccc4)c3n2)cc(F)c1F	3000 to 10000 nM
Cn1cc(-c2ccc3scc(-c4ccncc4C#N)c3n2)cn1	500 to 3000 nM
Cn1cc(-c2ccc3scc(-c4ccccc4)c3n2)cn1	100 to 499 nM
Cc1cnccc1-c1csc2ccc(-c3cnn(C)c3)nc12	500 to 3000 nM

---

# measuredTarget: DYRK2 (h) (Homo sapiens)
# Sequence (Q92630 1-601): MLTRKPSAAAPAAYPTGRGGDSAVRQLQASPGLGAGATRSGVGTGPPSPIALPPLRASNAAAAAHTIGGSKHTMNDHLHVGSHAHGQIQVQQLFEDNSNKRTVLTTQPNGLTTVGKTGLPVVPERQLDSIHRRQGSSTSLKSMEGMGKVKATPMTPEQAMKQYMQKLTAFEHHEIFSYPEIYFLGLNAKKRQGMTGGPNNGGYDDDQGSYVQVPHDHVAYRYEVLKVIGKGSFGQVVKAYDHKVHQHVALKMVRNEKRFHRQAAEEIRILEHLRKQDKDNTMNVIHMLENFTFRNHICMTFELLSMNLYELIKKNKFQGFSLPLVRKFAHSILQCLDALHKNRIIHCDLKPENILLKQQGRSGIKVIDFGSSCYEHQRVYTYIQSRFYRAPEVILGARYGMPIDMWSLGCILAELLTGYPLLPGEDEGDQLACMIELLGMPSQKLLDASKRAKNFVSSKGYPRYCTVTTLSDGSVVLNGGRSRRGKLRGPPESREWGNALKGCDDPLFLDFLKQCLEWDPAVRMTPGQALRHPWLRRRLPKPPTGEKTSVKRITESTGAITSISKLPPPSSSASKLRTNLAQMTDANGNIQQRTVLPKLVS
Overview of recorded IC50 for various molecules
endpoint: IC50

Cn1cc(-c2ccc3scc(-c4cnn(Cc5ccccc5)c4)c3n2)cn1	3 to 10 µM
Cc1cc(-c2csc3ccc(-c4cnn(C)c4)nc23)ccn1 [Preparative Example 15]	0.5 to 3 µM
Cn1ccc(-c2cc(Cl)c3scc(-c4ccncc4)c3n2)n1 [Preparative Example 163]	3 to 10 µM
Cn1cc(-c2ccc3scc(Nc4ccccc4)c3n2)cn1 [Preparative Example 76]	0.1 to 0.499 µM
Cn1cc(-c2ccc3scc(C(=O)c4ccccc4)c3n2)cn1 [Preparative Example 73]	3 to 10 µM
Cn1cc(-c2ccc3scc(-c4cncs4)c3n2)cn1 [Preparative Example 69]	0.1 to 0.499 µM
Cn1cc(-c2ccc3scc(-c4ccnc(C#N)c4)c3n2)cn1	0.5 to 3 µM
Cn1ncc(-c2ccc3scc(-c4ccncc4)c3n2)c1CC1CC1 [Preparative Example 82]	3 to 10 µM
Cn1cc(-c2ccc3scc(C(O)c4ccccc4)c3n2)cn1 (stereo not drawn) [Preparative Example 74]	3 to 10 µM

---

Consider compounds characterized by their IC50 with CDKL4(h) (Homo sapiens, UniProt Q5MAI5).
Sequence (Q5MAI5 whole entry): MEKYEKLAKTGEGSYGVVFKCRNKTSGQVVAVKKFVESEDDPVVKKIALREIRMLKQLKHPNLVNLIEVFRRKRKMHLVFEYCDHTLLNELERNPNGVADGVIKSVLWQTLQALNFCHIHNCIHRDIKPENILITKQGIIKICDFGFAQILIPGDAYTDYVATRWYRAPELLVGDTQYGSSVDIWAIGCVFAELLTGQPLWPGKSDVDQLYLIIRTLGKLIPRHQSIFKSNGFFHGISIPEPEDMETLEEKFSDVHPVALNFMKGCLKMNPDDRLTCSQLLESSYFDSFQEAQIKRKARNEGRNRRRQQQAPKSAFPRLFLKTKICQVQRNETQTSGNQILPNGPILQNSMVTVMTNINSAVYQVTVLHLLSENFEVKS
endpoint: IC50

Cn1cc(-c2ccc3scc(-c4ccc5ncnn5c4)c3n2)cn1	100 to 499 nM
Cn1cc(-c2ccc3scc(-c4ccncc4)c3n2)c(N)n1	500 to 3000 nM
Cn1cc(-c2ccc3scc(-c4ccnc(CN)c4)c3n2)cn1	500 to 3000 nM
Cn1cc(-c2ccc3scc(-c4cncs4)c3n2)cn1	100 to 499 nM
Cn1cc(-c2ccc3scc(C4=CCNCC4)c3n2)cn1	500 to 3000 nM
Cn1nccc1-c1ccc2scc(-c3ccncc3)c2n1	500 to 3000 nM
CC(C)n1cc(-c2ccc3scc(-c4ccncc4)c3n2)cn1	3000 to 10000 nM
Cc1cc2scc(-c3ccncc3)c2nc1-c1cnn(C)c1	500 to 3000 nM
Cn1cc(-c2ccc3scc(C(=O)c4ccccc4)c3n2)cn1	3000 to 10000 nM
Cn1cc(-c2cc(Cl)c3scc(-c4ccncc4)c3n2)cn1	100 to 499 nM
Cn1cc(-c2ccc3scc(-c4cccnc4)c3n2)cn1	500 to 3000 nM

---

# measuredTarget: CDKL4(h) (Homo sapiens)
endpoint: IC50

CCn1cc(-c2ccc3scc(-c4ccncc4)c3n2)cn1	500 to 3000 nM
Cn1ccc(-c2cc(Cl)c3scc(-c4ccncc4)c3n2)n1	500 to 3000 nM
Cc1nn(C)c(C)c1-c1ccc2scc(-c3ccncc3)c2n1	500 to 3000 nM
Cn1cc(-c2ccc3scc(C(O)c4ccccc4)c3n2)cn1 (stereo not drawn)	100 to 499 nM
Cn1cc(-c2ccc3scc(-c4ccncc4)c3n2)nn1	3000 to 10000 nM
Cn1cc(-c2ccc3scc(-c4ccnc(F)c4)c3n2)cn1	100 to 499 nM
Cn1cc(-c2ccc3scc(-c4ccncc4)c3n2)c(NC(=O)OC(C)(C)C)n1	500 to 3000 nM
Cn1cc(-c2ccc3scc(-c4ccnc(C#N)c4)c3n2)cn1	100 to 499 nM
Cn1cc(-c2ccc3scc(-c4cnn(Cc5ccccc5)c4)c3n2)cn1	100 to 499 nM

---

Consider molecules characterized by their IC50 with TAF1L(h) (Homo sapiens, UniProt Q8IZX4).
Sequence (Q8IZX4 whole entry): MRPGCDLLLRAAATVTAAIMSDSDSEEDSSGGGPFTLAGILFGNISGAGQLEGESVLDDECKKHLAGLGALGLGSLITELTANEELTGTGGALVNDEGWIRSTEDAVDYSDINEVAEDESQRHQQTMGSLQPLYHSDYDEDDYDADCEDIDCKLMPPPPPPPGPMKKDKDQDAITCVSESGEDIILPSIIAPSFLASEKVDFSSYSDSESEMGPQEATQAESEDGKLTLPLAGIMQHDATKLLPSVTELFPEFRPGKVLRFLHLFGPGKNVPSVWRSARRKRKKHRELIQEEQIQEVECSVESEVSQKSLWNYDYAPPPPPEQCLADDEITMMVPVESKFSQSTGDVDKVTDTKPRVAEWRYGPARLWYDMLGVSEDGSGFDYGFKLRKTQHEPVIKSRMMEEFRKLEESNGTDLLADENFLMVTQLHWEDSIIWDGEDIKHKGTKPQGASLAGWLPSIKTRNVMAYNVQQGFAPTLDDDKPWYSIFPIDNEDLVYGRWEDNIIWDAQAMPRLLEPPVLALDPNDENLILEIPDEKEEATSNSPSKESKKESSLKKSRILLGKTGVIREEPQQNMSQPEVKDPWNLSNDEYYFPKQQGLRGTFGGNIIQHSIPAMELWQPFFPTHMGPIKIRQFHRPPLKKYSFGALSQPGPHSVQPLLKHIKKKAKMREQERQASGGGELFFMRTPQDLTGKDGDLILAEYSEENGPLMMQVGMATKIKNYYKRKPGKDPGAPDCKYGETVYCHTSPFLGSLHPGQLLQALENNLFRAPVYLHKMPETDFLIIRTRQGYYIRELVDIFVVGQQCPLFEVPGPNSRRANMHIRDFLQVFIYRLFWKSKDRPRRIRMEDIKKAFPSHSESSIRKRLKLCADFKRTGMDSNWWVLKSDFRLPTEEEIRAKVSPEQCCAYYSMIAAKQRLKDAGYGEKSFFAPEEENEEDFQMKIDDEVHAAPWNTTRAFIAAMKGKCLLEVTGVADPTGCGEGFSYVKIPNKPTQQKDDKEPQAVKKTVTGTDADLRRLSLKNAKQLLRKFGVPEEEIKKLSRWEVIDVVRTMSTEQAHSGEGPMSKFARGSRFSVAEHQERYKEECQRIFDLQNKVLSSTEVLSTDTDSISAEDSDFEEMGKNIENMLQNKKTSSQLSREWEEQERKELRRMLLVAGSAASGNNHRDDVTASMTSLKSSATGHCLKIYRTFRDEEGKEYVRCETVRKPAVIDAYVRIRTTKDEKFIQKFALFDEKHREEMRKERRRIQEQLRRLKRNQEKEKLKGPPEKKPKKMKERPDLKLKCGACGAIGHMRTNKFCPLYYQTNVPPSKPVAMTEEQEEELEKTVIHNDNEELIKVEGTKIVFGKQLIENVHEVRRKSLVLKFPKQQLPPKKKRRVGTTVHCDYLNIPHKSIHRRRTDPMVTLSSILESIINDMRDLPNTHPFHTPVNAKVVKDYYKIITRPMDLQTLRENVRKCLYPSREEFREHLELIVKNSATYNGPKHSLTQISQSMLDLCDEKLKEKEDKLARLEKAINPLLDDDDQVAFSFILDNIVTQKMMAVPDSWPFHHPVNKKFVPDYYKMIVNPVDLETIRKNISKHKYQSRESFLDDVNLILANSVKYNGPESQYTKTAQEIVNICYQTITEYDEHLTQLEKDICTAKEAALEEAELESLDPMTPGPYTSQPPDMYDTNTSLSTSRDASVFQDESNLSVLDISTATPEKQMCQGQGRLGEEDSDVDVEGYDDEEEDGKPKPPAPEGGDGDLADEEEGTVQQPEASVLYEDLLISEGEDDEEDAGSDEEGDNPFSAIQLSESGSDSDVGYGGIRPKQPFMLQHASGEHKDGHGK
endpoint: IC50

Cn1cc(-c2ccc3scc(-c4ccnnc4)c3n2)cn1 [Preparative Example 40]	0.1 to 0.499 µM
Fc1cc(-c2ccc3scc(-c4ccccc4)c3n2)cc(F)c1F [Preparative Example 122]	3 to 10 µM
Cn1cc(-c2ccc3scc(-c4ccnc(F)c4)c3n2)cn1 [Preparative Example 22]	0.1 to 0.499 µM
COc1cc(-c2ccn(C)n2)nc2c(-c3ccncc3)csc12 [Preparative Example 165]	0.5 to 3 µM
Cn1ccc(-c2cc(Cl)c3scc(-c4ccncc4)c3n2)n1 [Preparative Example 163]	0.5 to 3 µM
Cn1cc(-c2ccc3scc(-c4cccnc4)c3n2)cn1 [Preparative Example 11]	0.5 to 3 µM
c1ccc(Cn2cc(-c3ccc4scc(-c5ccncc5)c4n3)cn2)cc1 [Preparative Example 81]	0.5 to 3 µM
Cn1cc(-c2ccc3scc(Nc4ccccc4)c3n2)cn1 [Preparative Example 76]	0.02 to 0.099 µM
